Source: PubChem BioAssay

tested on: Plasmodium falciparum Sir2 (PF13_0152, Sir2A); test: Plasmodium falciparum Sir2A binding compounds – biochemical, small-molecule microarray, 635 nm fluorescence, primary screen (AID 1098); settings: fluorescence 635 nm, higher = more signal;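 also: score merges spot fluorescence intensity with its signal-to-noise ratio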
I'd appreciate it if you could supply composite z-score values for the items below.
One number for each entry.

smiles text	composite z-score
CC(C)NC(=O)[C@@]1(c2ccc([N+](=O)[O-])cc2)CC(=O)N(CC23CC4CC(CC(C4)C2)C3)[C@@H]1c1ccc(CO)cc1	1.4
C[N+](C)(C)CCCCNC(=O)[C@H]1C[C@H]2C(=O)N[C@@H](Cc3ccccc3)C(=O)N2[C@H]1c1cccc(OCCO)c1	1.59
COCCOC(=O)N1C(=O)[C@@]2(c3cc(C#CC4(O)CCCCCC4)ccc31)[C@H](c1ccc(O)cc1)N1[C@H](c3ccccc3)[C@H](c3ccccc3)OC(=O)[C@H]1[C@@H]2C(=O)N1CCCCCCC1	1.08
COc1ccccc1CN1C(=O)c2ccccc2[C@](Cc2ccccc2I)(C(=O)NCC(C)C)[C@@H]1c1ccc(CO)cc1	1.66
CN(C)C(=O)[C@]1(Cc2ccccc2)N=C(c2ccc(OCCCO)cc2)O[C@@H]1c1ccccc1CN=[N+]=[N-]	0.978

Consider the record given below.
Task: Give reported composite z-score for COCCOC(=O)N1C(=O)[C@@]2(c3cc(C#Cc4ccc(OC)cc4)ccc31)[C@H](c1ccc(OCCO)cc1)N1[C@H](c3ccccc3)[C@H](c3ccccc3)OC(=O)[C@H]1[C@@H]2C(=O)NC[C@H](O)c1ccccc1 (Plasmodium falciparum Sir2 (PF13_0152, Sir2A))
Output: 1.38
